Origin of values: patent US20050165006A1

biological target: serotonin transporter (SERT) (Rattus norvegicus, UniProt P31652); experiment: Radioligand binding assay with [3H]citalopram on synaptic membrane; details: 1 nM [3H]citalopram, rat cerebral cortex synaptic membrane, 25° C., 60 minutes
Sequence (P31652 whole entry): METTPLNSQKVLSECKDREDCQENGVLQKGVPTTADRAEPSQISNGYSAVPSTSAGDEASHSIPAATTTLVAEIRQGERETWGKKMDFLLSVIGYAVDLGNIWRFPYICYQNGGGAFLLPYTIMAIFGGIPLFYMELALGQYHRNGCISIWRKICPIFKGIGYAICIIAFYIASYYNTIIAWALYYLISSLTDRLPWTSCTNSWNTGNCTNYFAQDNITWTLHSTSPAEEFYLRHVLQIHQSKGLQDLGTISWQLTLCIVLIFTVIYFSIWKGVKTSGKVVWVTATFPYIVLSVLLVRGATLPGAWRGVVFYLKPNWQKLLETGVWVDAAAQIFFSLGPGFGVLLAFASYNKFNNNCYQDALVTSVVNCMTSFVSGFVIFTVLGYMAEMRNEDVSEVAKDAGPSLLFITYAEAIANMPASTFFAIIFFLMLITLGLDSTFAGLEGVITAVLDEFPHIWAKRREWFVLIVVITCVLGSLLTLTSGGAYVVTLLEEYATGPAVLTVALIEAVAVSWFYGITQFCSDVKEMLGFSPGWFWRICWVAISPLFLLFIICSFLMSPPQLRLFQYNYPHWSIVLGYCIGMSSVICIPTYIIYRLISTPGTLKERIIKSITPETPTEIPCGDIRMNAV
pKi: −log10 of the molar value.
Recorded pKi determines the label; the label ranges are low = under 8, moderate = from 8 up to 9, high = 9 and over

Exercise: read the entry O=[N+]([O-])c1ccc2nc(N3CCNCC3)ccc2c1 [6-nitro-2-piperazin-1-yl-quinoline, 6-nitro-2-(piperazin-1-yl)quinoline, reference compound] and state which class it falls under.
high

Exercise: read the entry O=[N+]([O-])c1ccc2nc(N3CCNCC3)c(CCCF)cc2c1 [Example 5] and state which class it falls under.
high

Exercise: read the entry O=[N+]([O-])c1ccc2nc(N3CCCNCC3)ccc2c1 [Example 17, 2-[1,4]diazepin-1-yl-6-nitroquinoline] and state which class it falls under.
moderate

Exercise: read the entry CC1CN(c2ccc3cc([N+](=O)[O-])ccc3n2)CCN1 (stereo not drawn) [Example 15] and state which class it falls under.
low

====

test: Acute toxicity in rats; type: in vivo; settings: SD, rat, in vivo; rats, single administration of 500 mg/kg; read-out: estimated LD50
Result type: LD50

Supply recorded LD50 for Clc1ccc2nc(N3CCNCC3)ccc2c1 [Example 8, 6-chloro-2-piperazin-1-yl-quinoline] here.
> 500 mg/kg

====

target: serotonin transporter (SERT) (Rattus norvegicus); test: Radioligand binding assay with [3H]citalopram on synaptic membrane
Result type: pKi
FYI, pKi means -log10 of a concentration in mol per litre.

Supply recorded pKi for C=Cc1cc(N2CCNCC2)nc2ccc([N+](=O)[O-])cc12 [Example 13] here.
8.85

Supply recorded pKi for O=[N+]([O-])c1ccc2nc(N3CCNCC3)cc(-c3ccco3)c2c1 [Example 14] here.
8.19

Supply recorded pKi for CCCc1cc2cc([N+](=O)[O-])ccc2nc1N1CCNCC1 [Example 3] here.
9.59

Supply recorded pKi for O=[N+]([O-])c1ccc2nc(N3CCNCC3)cc(Cl)c2c1 [Example 10] here.
10.77

Supply recorded pKi for CCc1cc2cc([N+](=O)[O-])ccc2nc1N1CCNCC1 [Example 2] here.
9.44

Supply recorded pKi for O=[N+]([O-])c1ccc2nc(N3CCNCC3)c(CCCCl)cc2c1 [Example 4] here.
8.97

Supply recorded pKi for Cc1cc2cc([N+](=O)[O-])ccc2nc1N1CCNCC1 [Example 1] here.
8.07

====

target: UniProtKB P31652; assay: Radioligand binding assay with [3H]citalopram on synaptic membrane; conditions: 1 nM [3H]citalopram, rat cerebral cortex synaptic membrane, 25° C., 60 minutes
Result type: pKi
FYI, pKi means -log10 of a concentration in mol per litre.

Supply recorded pKi for Brc1ccc2nc(N3CCNCC3)ccc2c1 [Example 7, 6-bromo-2-piperazin-1-yl-quinoline] here.
9.04

Supply recorded pKi for Ic1ccc2nc(N3CCNCC3)ccc2c1 [Example 6, 6-iodo-2-piperazin-1-yl-quinoline] here.
8.18

Supply recorded pKi for CNCCN(C)c1ccc2cc([N+](=O)[O-])ccc2n1 [Example 16] here.
8.07

Supply recorded pKi for Clc1ccc2nc(N3CCNCC3)ccc2c1 [Example 8, 6-chloro-2-piperazin-1-yl-quinoline] here.
8.77

Supply recorded pKi for O=[N+]([O-])c1ccc2nc(N3CCNCC3)c(Br)cc2c1 [Example 9] here.
7.90
